- Experimental system: TLK1 (human) (UniProt Q9UKI8)
- Sequence (Q9UKI8 whole entry, looked up): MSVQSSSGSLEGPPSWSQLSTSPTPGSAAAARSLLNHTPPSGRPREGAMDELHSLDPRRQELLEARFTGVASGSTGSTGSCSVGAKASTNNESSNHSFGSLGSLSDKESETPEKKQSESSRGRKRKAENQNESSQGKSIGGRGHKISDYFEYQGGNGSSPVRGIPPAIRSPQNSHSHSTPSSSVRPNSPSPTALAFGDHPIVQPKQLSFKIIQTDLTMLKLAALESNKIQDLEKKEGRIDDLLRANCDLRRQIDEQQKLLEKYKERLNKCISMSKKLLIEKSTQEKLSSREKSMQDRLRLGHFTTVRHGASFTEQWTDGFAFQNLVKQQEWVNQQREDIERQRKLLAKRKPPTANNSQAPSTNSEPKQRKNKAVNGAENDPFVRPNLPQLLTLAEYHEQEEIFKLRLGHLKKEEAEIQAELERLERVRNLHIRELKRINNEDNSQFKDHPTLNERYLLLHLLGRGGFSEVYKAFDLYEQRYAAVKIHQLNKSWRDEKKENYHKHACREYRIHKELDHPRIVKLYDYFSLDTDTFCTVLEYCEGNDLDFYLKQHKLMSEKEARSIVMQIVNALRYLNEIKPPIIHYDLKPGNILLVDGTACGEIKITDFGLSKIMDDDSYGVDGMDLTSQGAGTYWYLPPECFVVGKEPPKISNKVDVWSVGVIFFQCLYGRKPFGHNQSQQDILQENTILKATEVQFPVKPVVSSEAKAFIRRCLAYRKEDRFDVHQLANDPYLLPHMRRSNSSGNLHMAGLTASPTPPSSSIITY
- Assay procedure: KINOMEscan competition binding
- Condition set: compound 10.0 µM

| Smi | Experimental system | kinase still bound, per cent of control, % |
| --- | --- | --- |
| O=c1cc(N2CCOCC2)oc2c(-c3cccc4c3sc3ccccc34)cccc12 | TLK1 (human) (UniProt Q9UKI8) | 71 |
| COc1cc2ncnc(-n3nc(-c4ccccn4)nc3N)c2cc1OC | TLK1 (human) (UniProt Q9UKI8) | 46 |
| COCC(=O)NC/C=C/c1ccc2ncnc(Nc3ccc(Oc4ccc(C)nc4)c(C)c3)c2c1 | TLK1 (human) (UniProt Q9UKI8) | 79 |
| O=C1NC(=O)/C(=C/c2ccc3nccc(-c4ccncc4)c3c2)S1 | TLK1 (human) (UniProt Q9UKI8) | 81 |
| CCN(CC)CCCCNc1ncc2cc(-c3cc(OC)cc(OC)c3)c(NC(=O)NC(C)(C)C)nc2n1 | TLK1 (human) (UniProt Q9UKI8) | 100 |
| C=CC(=O)Nc1cc(-n2c(=O)ccc3cnc4ccc(-c5cn[nH]c5)cc4c32)ccc1C | TLK1 (human) (UniProt Q9UKI8) | 100 |
| CCN(CC)CCCCNc1ncc2c(n1)N(C)C(=O)N(c1c(Cl)c(OC)cc(OC)c1Cl)C2 | TLK1 (human) (UniProt Q9UKI8) | 100 |
| COc1cc2ncn(-c3cc(OCc4ccccc4C(F)(F)F)c(C(N)=O)s3)c2cc1OC | TLK1 (human) (UniProt Q9UKI8) | 96 |
| CN(C)C/C=C/C(=O)Nc1ccc(C(=O)Nc2cccc(Nc3nccc(-c4cccnc4)n3)c2)cc1 | TLK1 (human) (UniProt Q9UKI8) | 92 |
